Reference source: patent US9187471B2

molecular target: human recombinant adrenergic α2C receptor (Homo sapiens, UniProt P18825); construct: expressed in transfected cells; host or cells: insect Sf9 cells; assay: Adrenergic α2C radioligand binding ([3H]MK-912); settings: read-out: Adrenergic (0.1 μM) a2C, percent inhibition of specific binding; compound at 0.1 μM; 1 nM [3H]MK-912
Sequence (P18825 whole entry): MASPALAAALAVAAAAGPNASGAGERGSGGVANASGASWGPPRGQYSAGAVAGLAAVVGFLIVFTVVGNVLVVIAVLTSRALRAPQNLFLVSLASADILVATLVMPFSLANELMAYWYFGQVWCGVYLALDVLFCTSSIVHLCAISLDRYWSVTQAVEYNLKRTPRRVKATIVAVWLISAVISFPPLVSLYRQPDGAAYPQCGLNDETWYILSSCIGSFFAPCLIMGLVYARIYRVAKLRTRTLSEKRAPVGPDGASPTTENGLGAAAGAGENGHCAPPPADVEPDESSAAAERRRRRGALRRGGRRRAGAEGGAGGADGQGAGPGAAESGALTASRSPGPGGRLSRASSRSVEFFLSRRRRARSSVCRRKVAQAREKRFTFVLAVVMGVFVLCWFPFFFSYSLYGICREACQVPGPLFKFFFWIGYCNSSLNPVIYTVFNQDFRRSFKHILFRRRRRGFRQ
Assign class by inhibition at 0.1 µM: not lower than 10% means Met; lower than 10% means Not met.

compound_structure | assigned_class
Cc1cc(C)c2c(c1)c1c(n2-c2cccc(-c3ccncc3)c2)CCN(C)C1 | Not met
Cc1ccc2c(c1)c1c(n2-c2ccc(-c3ccc4c(ccn4C)c3)cn2)CCN(C)C1 | Met
Cc1ccc2c(c1)c1c(n2-c2cscc2-c2cccc3[nH]ncc23)CCN(C)C1 | Met
Cc1ccc2c(c1)c1c(n2-c2ccccc2-c2ccncc2)CCN(C)C1 | Met
Cc1ccc2c(c1)c1c(n2-c2cscc2-c2ccc(O)nc2)CCN(C)C1 | Not met

(Q) Tell me whether inhibition at 0.1 µM is at least 10% here: `Cc1ccc2c(c1)c1c(n2-c2ccccc2-c2cccn2C)CCN(C)C1`
(A) Met

(Q) Next record, please: `CNC(=O)c1ccc(-c2ccccc2-n2c3c(c4cc(C)ccc42)CN(C)CC3)cn1`
(A) Not met

(Q) Could you do the same for `Cc1ccc2c(c1)c1c(n2-c2ccccc2-c2cnc(N(C)C)nc2)CCN(C)C1` , please?
(A) Met
